Parameter pKd: see the listing below.
- Experimental target: HLA-B*58:01
- Experiment notes: IEDB peptide-MHC binding, purified MHC/direct/fluorescence; filed as Kd, often an IC50 or EC50 that approximates it; bounds were set here for any values at or beyond the usual limits of such assays
- Experimental context: source organism: Escherichia coli
pKd: −log10 of the molar value.
Readout label: pKd

Sequence input | Readout label | Value operator | Val
RRRIGEIFK | pKd | ≤ | 4.70
WSILRQRCW | pKd | = | 7.28

---

- Experimental target: HLA-A*01:01
- Experiment notes: IEDB peptide-MHC binding, purified MHC/direct/fluorescence; filed as Kd, often an IC50 or EC50 that approximates it; bounds were set here for any values at or beyond the usual limits of such assays
- Experimental context: source organism: Mycobacterium avium 104

Sequence input | Kd
EHVQGDIDL | ≥ 20 µM

---

- Experimental target: HLA-A*03:01
- Experiment notes: IEDB peptide-MHC binding, purified MHC/competitive/radioactivity; filed as Kd, often an IC50 or EC50 that approximates it; bounds were set here for any values at or beyond the usual limits of such assays
- Experimental context: source organism: Dengue virus 4 Philippines/H241/1956
Parameter Kd: see the listing below.

Sequence input | Kd / nM
ALAPPVNDLK | 48.1
MILMKMKKK | 86.3
YVLGIFLRK | 1.22

---

- Experimental target: HLA-A*11:01
- Experiment notes: IEDB peptide-MHC binding, purified MHC/direct/fluorescence; filed as Kd, often an IC50 or EC50 that approximates it; bounds were set here for any values at or beyond the usual limits of such assays
- Experimental context: source organism: Influenza A virus (A/SW/KS/13481-T/00(H1N2))
Readout label: Kd

Sequence input | Experimental target | Readout label | Val
HEKGINPNY | HLA-A*11:01 | Kd | ≥ 20 µM

---

- Experimental target: HLA-A*69:01
- Experiment notes: IEDB peptide-MHC binding, purified MHC/direct/fluorescence; filed as Kd, often an IC50 or EC50 that approximates it; bounds were set here for any values at or beyond the usual limits of such assays
- Experimental context: source organism: Entamoeba histolytica HM-1:IMSS
pKd: −log10 of the molar value.
Readout label: pKd

Sequence input | Experimental target | Readout label | Val
DSFAKQPQW | HLA-A*69:01 | pKd | ≤ 4.70

---

- Experimental target: HLA-A*03:01
- Experiment notes: IEDB peptide-MHC binding, purified MHC/direct/fluorescence; filed as Kd, often an IC50 or EC50 that approximates it; bounds were set here for any values at or beyond the usual limits of such assays
- Experimental context: source organism: Influenza A virus (A/Wisconsin/4755/1994(H1N1))

Sequence input | Kd
ITKEKKEEL | ≥ 20 µM

---

- Experimental target: HLA-A*01:01
- Experiment notes: IEDB peptide-MHC binding, purified MHC/direct/fluorescence; filed as Kd, often an IC50 or EC50 that approximates it; bounds were set here for any values at or beyond the usual limits of such assays
- Experimental context: source organism: Vibrio cholerae
Readout label: Kd

Sequence input | Val
RYDYANLCQ | ≥ 20 µM
YLKKGRLSL | ≥ 20 µM

---

- Experimental target: HLA-A*02:03
- Experiment notes: IEDB peptide-MHC binding, purified MHC/direct/fluorescence; filed as Kd, often an IC50 or EC50 that approximates it; bounds were set here for any values at or beyond the usual limits of such assays
- Experimental context: source organism: Crocodilepox virus
pKd: −log10 of the molar value.

Sequence input | pKd
VVARLGVPY | ≤ 4.70

---

- Experimental target: HLA-A*24:03
- Experiment notes: IEDB peptide-MHC binding, purified MHC/direct/fluorescence; filed as Kd, often an IC50 or EC50 that approximates it; bounds were set here for any values at or beyond the usual limits of such assays
- Experimental context: source organism: Araucaria virus
Readout label: Kd

Sequence input | Val
GFAIPIILK | ≥ 20 µM

---

- Experimental target: HLA-A*01:01
- Experiment notes: IEDB peptide-MHC binding, purified MHC/direct/fluorescence; filed as Kd, often an IC50 or EC50 that approximates it; bounds were set here for any values at or beyond the usual limits of such assays
- Experimental context: source organism: Salmonella enterica subsp. enterica serovar Typhimurium
Readout label: Kd

Sequence input | Val
KSNGAQQWL | ≥ 20 µM

---

- Experimental target: HLA-A*30:01
- Experiment notes: IEDB peptide-MHC binding, purified MHC/competitive/radioactivity; filed as Kd, often an IC50 or EC50 that approximates it; bounds were set here for any values at or beyond the usual limits of such assays
- Experimental context: source organism: Dengue virus 1 Brazil/97-11/1997

Sequence input | Experimental target | Display unit | Kd
GRTLRVLKMV | HLA-A*30:01 | nM | 634
DARTYSDPLA | HLA-A*30:01 | nM | 924

---

- Experimental target: HLA-A*69:01
- Experiment notes: IEDB peptide-MHC binding, purified MHC/competitive/fluorescence; filed as Kd, often an IC50 or EC50 that approximates it; bounds were set here for any values at or beyond the usual limits of such assays
- Experimental context: source organism: Vibrio parahaemolyticus AN-5034

Sequence input | Kd [µM]
DTWHGFKNM | 0.0223

---

- Experimental target: HLA-A*26:03
- Experiment notes: IEDB peptide-MHC binding, purified MHC/direct/fluorescence; filed as Kd, often an IC50 or EC50 that approximates it; bounds were set here for any values at or beyond the usual limits of such assays
- Experimental context: source organism: Hepatovirus A
Readout label: Kd

Sequence input | Experimental target | Readout label | Val
YMYAVSGAL | HLA-A*26:03 | Kd | ≥ 20 µM

---

- Experimental target: HLA-A*11:01
- Experiment notes: IEDB peptide-MHC binding, purified MHC/direct/fluorescence; filed as Kd, often an IC50 or EC50 that approximates it; bounds were set here for any values at or beyond the usual limits of such assays
- Experimental context: source organism: Influenza A virus (A/swine/Korea/S190/2004(H9N2))
pKd: −log10 of the molar value.
Readout label: pKd

Sequence input | Val
WIPKRNRSI | ≤ 4.70

---

- Experimental target: HLA-B*57:01
- Experiment notes: IEDB peptide-MHC binding, purified MHC/direct/fluorescence; filed as Kd, often an IC50 or EC50 that approximates it; bounds were set here for any values at or beyond the usual limits of such assays
- Experimental context: source organism: Mycobacterium avium 104
pKd: −log10 of the molar value.

Sequence input | pKd
EHVQGDIDL | ≤ 4.70

---

- Experimental target: HLA-A*03:01
- Experiment notes: IEDB peptide-MHC binding, purified MHC/direct/fluorescence; filed as Kd, often an IC50 or EC50 that approximates it; bounds were set here for any values at or beyond the usual limits of such assays
- Experimental context: source organism: Mycobacterium tuberculosis
pKd: −log10 of the molar value.

Sequence input | Experimental target | pKd
GPRGRHVVL | HLA-A*03:01 | ≤ 4.70
RSADGSPPY | HLA-A*03:01 | 5.60
YLHYYRIIR | HLA-A*03:01 | ≤ 4.70

---

- Experimental target: HLA-B*57:01
- Experiment notes: IEDB peptide-MHC binding, purified MHC/competitive/fluorescence; filed as Kd, often an IC50 or EC50 that approximates it; bounds were set here for any values at or beyond the usual limits of such assays
- Experimental context: source organism: Orthohantavirus tulaense

Sequence input | Kd
ILMARYMSK | ≥ 20 µM

---

- Experimental target: HLA-B*58:01
- Experiment notes: IEDB peptide-MHC binding, purified MHC/direct/fluorescence; filed as Kd, often an IC50 or EC50 that approximates it; bounds were set here for any values at or beyond the usual limits of such assays
- Experimental context: source organism: Influenza A virus (A/SW/KS/13481-T/00(H1N2))
pKd: −log10 of the molar value.
Readout label: pKd

Sequence input | Readout label | Val
HEKGINPNY | pKd | ≤ 4.70

---

- Experimental target: HLA-A*02:03
- Experiment notes: IEDB peptide-MHC binding, purified MHC/competitive/radioactivity; filed as Kd, often an IC50 or EC50 that approximates it; bounds were set here for any values at or beyond the usual limits of such assays
- Experimental context: source organism: Lassa virus Josiah

Sequence input | Experimental target | Kd, nM
FVFSTSFYL | HLA-A*02:03 | 51

---

- Experimental target: HLA-B*08:01
- Experiment notes: IEDB peptide-MHC binding, purified MHC/direct/fluorescence; filed as Kd, often an IC50 or EC50 that approximates it; bounds were set here for any values at or beyond the usual limits of such assays
- Experimental context: source organism: Influenza A virus (A/swine/Hong Kong/5190/99(H3N2))
Readout label: Kd

Sequence input | Val
GYMFESKSM | ≥ 20 µM

---

Parameter Kd: see the listing below.
- Experimental target: HLA-A*02:01
- Experiment notes: IEDB peptide-MHC binding, purified MHC/competitive/fluorescence; filed as Kd, often an IC50 or EC50 that approximates it; bounds were set here for any values at or beyond the usual limits of such assays
- Experimental context: source organism: Human immunodeficiency virus 1
Readout label: Kd (µM)

Sequence input | Experimental target | Readout label | Val
FLGKIWPS | HLA-A*02:01 | Kd | 0.00325
HLADQLIHQ | HLA-A*02:01 | Kd | 6.59
